Listed here: items and their measured inhibition at 50 µM.
Biological target: Aromatase (Homo sapiens, UniProt P11511)
Sequence (P11511 whole entry): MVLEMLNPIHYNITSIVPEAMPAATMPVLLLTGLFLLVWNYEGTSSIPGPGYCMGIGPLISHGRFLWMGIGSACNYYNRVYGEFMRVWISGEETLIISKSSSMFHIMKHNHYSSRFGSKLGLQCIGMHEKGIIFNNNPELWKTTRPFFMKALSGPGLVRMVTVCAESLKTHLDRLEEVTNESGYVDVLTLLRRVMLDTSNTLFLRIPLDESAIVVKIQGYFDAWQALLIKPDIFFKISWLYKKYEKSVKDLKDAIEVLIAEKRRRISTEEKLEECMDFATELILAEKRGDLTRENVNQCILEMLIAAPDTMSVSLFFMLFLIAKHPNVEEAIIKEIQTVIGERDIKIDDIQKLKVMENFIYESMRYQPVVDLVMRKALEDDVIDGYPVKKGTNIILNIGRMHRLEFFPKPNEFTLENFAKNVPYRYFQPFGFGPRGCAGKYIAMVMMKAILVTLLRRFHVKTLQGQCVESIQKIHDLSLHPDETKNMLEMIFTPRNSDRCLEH
Conditions: 0.5 h, read-out: INH

- smiles_data: "COc1cccc(-c2csc(-c3ccccc3)n2)c1"
  tested_on: "Aromatase (Homo sapiens, UniProt P11511)"
  unit_string: "%"
  inhibition at 50 µM: 27.1
- smiles_data: "c1ccc(-c2nsc(-c3ccccc3)n2)cc1"
  tested_on: "Aromatase (Homo sapiens, UniProt P11511)"
  unit_string: "%"
  inhibition at 50 µM: 60.2
- smiles_data: "Fc1ccccc1-c1nsc(-c2ccccc2F)n1"
  tested_on: "Aromatase (Homo sapiens, UniProt P11511)"
  unit_string: "%"
  inhibition at 50 µM: 53.2
- smiles_data: "COc1cccc(-c2nc(-c3ccccc3)cs2)c1"
  tested_on: "Aromatase (Homo sapiens, UniProt P11511)"
  unit_string: "%"
  inhibition at 50 µM: 35.5

---

Assay: Inhibition of TNFalpha-induced NF-kappaB activity expressed in HEK293 cells by luciferase reporter gene assay
Type: cell-based
Conditions: Homo sapiens
Each item that follows carries a reported IC50.

- smiles_data: "COc1cccc(-c2nc(-c3ccccc3)cs2)c1"
  qualifying_sign: "="
  IC50 (µM): 2.7
- smiles_data: "COc1cccc(-c2csc(-c3ccccc3)n2)c1"
  qualifying_sign: "="
  IC50 (µM): 31.6
- smiles_data: "Fc1ccccc1-c1nsc(-c2ccccc2F)n1"
  qualifying_sign: ">"
  IC50 (µM): 50
- smiles_data: "c1ccc(-c2nsc(-c3ccccc3)n2)cc1"
  qualifying_sign: "="
  IC50 (µM): 47.7
- smiles_data: "COc1cccc(-c2csc(-c3cccc(OC)c3)n2)c1"
  qualifying_sign: "="
  IC50 (µM): 20.3

---

Molecular target: Nitric oxide synthase, inducible (Mus musculus, UniProt P29477)
Sequence (P29477 whole entry): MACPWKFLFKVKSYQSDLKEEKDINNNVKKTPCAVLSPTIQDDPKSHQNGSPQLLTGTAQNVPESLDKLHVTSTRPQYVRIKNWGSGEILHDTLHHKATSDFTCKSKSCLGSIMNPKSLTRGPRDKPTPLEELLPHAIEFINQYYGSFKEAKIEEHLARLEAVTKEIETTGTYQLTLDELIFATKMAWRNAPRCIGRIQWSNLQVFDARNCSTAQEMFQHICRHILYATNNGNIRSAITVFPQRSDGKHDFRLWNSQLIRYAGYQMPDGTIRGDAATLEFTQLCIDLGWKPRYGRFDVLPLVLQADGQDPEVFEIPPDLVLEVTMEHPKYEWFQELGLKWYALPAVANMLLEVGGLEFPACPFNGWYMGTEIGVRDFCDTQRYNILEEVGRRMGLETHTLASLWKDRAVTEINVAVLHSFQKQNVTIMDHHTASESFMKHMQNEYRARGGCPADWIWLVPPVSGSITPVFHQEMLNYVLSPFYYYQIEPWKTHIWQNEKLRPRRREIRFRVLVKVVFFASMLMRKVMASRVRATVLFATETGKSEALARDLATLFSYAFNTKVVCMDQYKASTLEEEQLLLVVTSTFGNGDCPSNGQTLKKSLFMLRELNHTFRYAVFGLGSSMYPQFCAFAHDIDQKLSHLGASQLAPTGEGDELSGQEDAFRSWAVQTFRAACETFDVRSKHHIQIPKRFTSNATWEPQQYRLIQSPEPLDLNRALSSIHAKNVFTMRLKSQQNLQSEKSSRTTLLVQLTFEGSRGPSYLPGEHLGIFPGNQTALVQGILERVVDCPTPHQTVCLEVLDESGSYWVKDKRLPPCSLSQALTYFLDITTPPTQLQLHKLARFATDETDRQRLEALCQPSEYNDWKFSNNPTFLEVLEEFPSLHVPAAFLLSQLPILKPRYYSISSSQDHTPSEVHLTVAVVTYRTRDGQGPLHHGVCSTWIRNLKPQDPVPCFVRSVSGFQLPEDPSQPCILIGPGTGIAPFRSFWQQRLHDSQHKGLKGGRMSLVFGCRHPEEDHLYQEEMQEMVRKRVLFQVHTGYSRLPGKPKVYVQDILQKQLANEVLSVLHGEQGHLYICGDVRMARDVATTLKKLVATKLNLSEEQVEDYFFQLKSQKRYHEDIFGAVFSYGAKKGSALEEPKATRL
Test: Inhibition of LPS-induced iNOS activity in mouse RAW 264.7 cells assessed as inhibition of NO production pretreated with compound for 30 mins before LPS challenge after 24 hrs by Griess reagent method

- smiles_data: "Fc1ccccc1-c1nsc(-c2ccccc2F)n1"
  IC50: "> 50 µM"
- smiles_data: "COc1cccc(-c2csc(-c3ccccc3)n2)c1"
  IC50: "45.3 µM"
- smiles_data: "c1ccc(-c2nsc(-c3ccccc3)n2)cc1"
  IC50: "> 50 µM"
- smiles_data: "COc1cccc(-c2nc(-c3ccccc3)cs2)c1"
  IC50: "> 50 µM"
- smiles_data: "COc1cccc(-c2csc(-c3cccc(OC)c3)n2)c1"
  IC50: "> 50 µM"
